Measured self-aminoacylation by item
- Tested on: biotinyl-Leu-oxazolone
- assayRemarks: self-aminoacylation, catalytic enhancement (BLO) (fold over background); higher = more active; k-Seq, kA / k0A0; sequences stand for … in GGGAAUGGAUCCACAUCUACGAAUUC…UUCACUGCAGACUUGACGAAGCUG
This sample holds only a part of the variants without activity.

orderedResidues | testedSystem | self-aminoacylation
CUACUUCAAACAACGGGUCUG [Fam1A.1 aminoacylation ribozyme variant] | biotinyl-Leu-oxazolone | 0.627
AUUCACCAAGGUCAUGGGGUG [Fam2.2 aminoacylation ribozyme variant] | biotinyl-Leu-oxazolone | 12.7
GCACACUUCAGGCAAUCGGUC [Fam1B.1 aminoacylation ribozyme variant] | biotinyl-Leu-oxazolone | 1.67
CCUCAAUUCAAGCAAUCGGUC [Fam1B.1 aminoacylation ribozyme variant] | biotinyl-Leu-oxazolone | 1.04
CCACGUCAAACAAUCGGUCUG [Fam1A.1 aminoacylation ribozyme variant] | biotinyl-Leu-oxazolone | 1.36
CUACUUGAAACAAUCGUUCUG [Fam1A.1 aminoacylation ribozyme variant] | biotinyl-Leu-oxazolone | 0.645
CUAGUUCAAACGAUCGGUCUG [Fam1A.1 aminoacylation ribozyme variant] | biotinyl-Leu-oxazolone | 0.844
AAGUUUCCUAAUAGUCGCAAA [Fam3.1 aminoacylation ribozyme variant] | biotinyl-Leu-oxazolone | 1.99
CUACUUCAAACAAUCGUUGUG [Fam1A.1 aminoacylation ribozyme variant] | biotinyl-Leu-oxazolone | 1.7
AAGUUUGCUAUUAGUUGCAAG [Fam3.1 aminoacylation ribozyme variant] | biotinyl-Leu-oxazolone | 0.96
UAGUUUGCUAAAAGUCGCAAG [Fam3.1 aminoacylation ribozyme variant] | biotinyl-Leu-oxazolone | 1.57
CCACACUUCAAGCAAUCGCAC [Fam1B.1 aminoacylation ribozyme variant] | biotinyl-Leu-oxazolone | 0.465
AUUAUCCUGGUCAUCGAGUGG [Fam2.1 aminoacylation ribozyme variant] | biotinyl-Leu-oxazolone | 5.03
AUUCAACUUGGUCAUCGGGUG [Fam2.2 aminoacylation ribozyme variant] | biotinyl-Leu-oxazolone | 6.72
AUUACCCUGGUCAUCGAGUGA [Fam2.1 aminoacylation ribozyme variant] | biotinyl-Leu-oxazolone | 86.9
AUGCACCUAGGACAUCGGGUG [Fam2.2 aminoacylation ribozyme variant] | biotinyl-Leu-oxazolone | 4.43
AUACUUCAAACAGUCGGUCUG [Fam1A.1 aminoacylation ribozyme variant] | biotinyl-Leu-oxazolone | 0.996
CCACACUUCAAGGAAUUGGUC [Fam1B.1 aminoacylation ribozyme variant] | biotinyl-Leu-oxazolone | 1.03
